As shown below, each of these binders has a reported sPAP HepG2 B6 assay: Expt 2 % (EC50 as % of wild type EC50) value.
Molecular target: T1, gp130 on HepG2 B6 cells (UniProt P40189 23-918, limits assumed)
T1 sequence (looked up): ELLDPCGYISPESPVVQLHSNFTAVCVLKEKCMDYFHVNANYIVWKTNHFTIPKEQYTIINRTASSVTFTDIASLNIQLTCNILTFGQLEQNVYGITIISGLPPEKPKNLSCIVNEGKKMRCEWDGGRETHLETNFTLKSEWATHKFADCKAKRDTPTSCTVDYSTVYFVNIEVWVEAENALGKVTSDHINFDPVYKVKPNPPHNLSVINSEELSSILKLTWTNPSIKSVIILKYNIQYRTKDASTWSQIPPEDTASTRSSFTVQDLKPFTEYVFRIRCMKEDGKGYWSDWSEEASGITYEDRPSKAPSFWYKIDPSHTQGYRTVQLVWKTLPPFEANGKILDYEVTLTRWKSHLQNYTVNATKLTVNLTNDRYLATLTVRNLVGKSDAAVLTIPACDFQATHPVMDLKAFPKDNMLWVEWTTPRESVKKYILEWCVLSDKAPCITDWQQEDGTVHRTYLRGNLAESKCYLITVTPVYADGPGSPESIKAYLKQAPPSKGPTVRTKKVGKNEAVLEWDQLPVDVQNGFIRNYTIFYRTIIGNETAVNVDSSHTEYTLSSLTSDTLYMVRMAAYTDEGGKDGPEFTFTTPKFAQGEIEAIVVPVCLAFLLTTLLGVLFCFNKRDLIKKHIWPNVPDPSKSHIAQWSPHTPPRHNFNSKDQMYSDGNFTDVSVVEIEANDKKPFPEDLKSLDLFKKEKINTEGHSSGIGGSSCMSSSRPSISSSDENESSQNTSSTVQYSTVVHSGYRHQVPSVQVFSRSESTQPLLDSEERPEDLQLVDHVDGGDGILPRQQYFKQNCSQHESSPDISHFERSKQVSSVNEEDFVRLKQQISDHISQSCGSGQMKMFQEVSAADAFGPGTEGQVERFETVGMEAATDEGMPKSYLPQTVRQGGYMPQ
Test: cell-based or functional assay
Give the number; % is assumed, so skip it.

OSM-GST mutant Q25A (ligand, not shown: a dimerising Fc or GST; large carriers; small tags and cut ends, Alanine mutant of m4; also called (26)Q25A; 26 Q25A) AAIGSCSKEYRVLLGQLQKQTDLMADTSRLLDPYIRIQGLDVPKLREHCRERPGAFPSEETLRGLGRRGFLQTLNATLGCVLHRLADLEQRLPKAQDLERSGLNIEDLEKLQMARPNILGLRNNIYCMAQLLDNSDTAEPTKAGRGASQPPTPTPASDAFQRKLEGCRFLHGYHRFMHSVGRVFSKWGESPNRSRR = 41
OSM-GST mutant S7A (ligand, not shown: a dimerising Fc or GST; large carriers; small tags and cut ends, Alanine mutant of m4; also called (1)S7A; 1 S7A) AAIGSCAKEYRVLLGQLQKQTDLMQDTSRLLDPYIRIQGLDVPKLREHCRERPGAFPSEETLRGLGRRGFLQTLNATLGCVLHRLADLEQRLPKAQDLERSGLNIEDLEKLQMARPNILGLRNNIYCMAQLLDNSDTAEPTKAGRGASQPPTPTPASDAFQRKLEGCRFLHGYHRFMHSVGRVFSKWGESPNRSRR = 69

**Query** What value of sPAP HepG2 B6 assay: Expt 2 % (EC50 as % of wild type EC50) has been reported for the following binder? OSM-GST mutant L14A (ligand, Alanine mutant of m4; also called (7)L14A; 7 L14A; not shown: Its linker is left out) AAIGSCSKEYRVLAGQLQKQTDLMQDTSRLLDPYIRIQGLDVPKLREHCRERPGAFPSEETLRGLGRRGFLQTLNATLGCVLHRLADLEQRLPKAQDLERSGLNIEDLEKLQMARPNILGLRNNIYCMAQLLDNSDTAEPTKAGRGASQPPTPTPASDAFQRKLEGCRFLHGYHRFMHSVGRVFSKWGESPNRSRR
**Result** 77
